- Target Under Test: protein kinase C (PKC)
- Assay Procedure: Protein Kinase C Inhibition
- Format: biochemical, rat
- Settings: free base
pIC50: −log10 of the molar value.
The following compounds are listed with their measured pIC50 values.
Observable: pIC50

compound="CCCCCCCCCCCCCCCC(=O)N(C)CCN(C)C [Compound 25]" recorded_measurement=4.04
compound="CCCCCCCCCCCCCCCC(=O)N(C)CCN(C)C [Compound 3]" recorded_measurement=4.40
compound=CCCCCCCCCCCCCCCCN(CCCN(C)C)C(C)=O recorded_measurement=4.16
compound=CCCCCCCCCCCCCCCC(=O)N(CCC[N+]1(C)CCOCC1)Cc1ccccc1 recorded_measurement=4.35
compound=CCCCCCCCCCCCCCCC(=O)NCCCN(CC)CC recorded_measurement=3.88
compound=CCCCCCCCCCCCCCCC(=O)NCCC[N+](C)(C)C recorded_measurement=4.62
compound=CCCCCCCCCCCCCCCC(=O)N(CC)CCCN(C)C recorded_measurement=4.30
compound=CCCCCCCCCCCCCCCC(=O)N(CCC)CCCN(C)C recorded_measurement=3.88
compound=CCCCCCCCCCCCCCCC(=O)N(CCCN(C)C)C(C)C recorded_measurement=3.84
compound=CCCCCCCCCCCCCCCC(=O)NCCCN(C)C recorded_measurement=4.30
compound="CCCCCCCCCCCCCCCC(=O)NCCCN1CCCCC1C (stereo not shown)" recorded_measurement=3.89
compound=CCCCCCCCCCCCCCCC(=O)N(C)CCCN(C)C recorded_measurement=3.97
compound=CCCCCCCCCCCCCCCC(=O)N(C)CCC[N+]1(C)CCOCC1 recorded_measurement=4.66

====

- Target Under Test: protein kinase C (PKC)
- Assay Procedure: Protein Kinase C Inhibition
- Assay type: biochemical, rat
- Settings: HCl salt
- Method: The protein kinase C (PKC) assay is designed to duplicate the in vivo conditions required for protein kinase C function. Therefore, pH, salt and cofactor concentrations are similar to physiologic levels. Histone H1 (lysine rich) is used in the assay as the phosphorylation acceptor protein because it is readily available and serves as a good substrate for protein kinase C. […] The amount of phosphorylation is determined by the radioactivity measured in a scintillation counter. […]
pIC50: −log10 of the molar value.
The following compounds are listed with their measured pIC50 values.
Observable: pIC50

compound="CCCCCCCCCCCCCCCC(=O)N(CCCN(C)C)C(C)C [Compound 9]" observable=pIC50 recorded_measurement=3.89
compound="CCCCCCCCCCCCCCCC(=O)N(CCC)CCCN(C)C [Compound 8]" observable=pIC50 recorded_measurement=4.32
compound="CCCCCCCCCCCCCCCC(=O)NCCCN1CCCCC1C (stereo not drawn) [Compound 11]" observable=pIC50 recorded_measurement=4.18
compound="CCCCCCCCCCCCCCCC(=O)N(C)CCN(C)C [Compound 25]" observable=pIC50 recorded_measurement=4.00
compound="CCCCCCCCCCCCCCCCN(CCCN(C)C)C(C)=O [Compound 20]" observable=pIC50 recorded_measurement=4.36
compound="CCCCCCCCCCCCCCCC(=O)N(C)CCCN(C)C [Compound 4]" observable=pIC50 recorded_measurement=4.24
compound="CCCCCCCCCCCCCCCC(=O)N(CC)CCCN(C)C [Compound 7]" observable=pIC50 recorded_measurement=4.42
compound="CCCCCCCCCCCCCCCC(=O)NCCCN(C)C [Compound 6]" observable=pIC50 recorded_measurement=4.30
compound="CCCCCCCCCCCCCCCC(=O)N(C)CCN(C)C [Compound 3]" observable=pIC50 recorded_measurement=4.18

The values you see were collected from patent US5270310A.
